# Tested on: MOLM-13 cells
# procedure_details: CellTiter-Blue cell viability, MOLM-13
# Format: cell-based
# condition_label: Homo sapiens, 72 hrs exposure
# Description: Anti-cancer efficacy of exemplary compounds of this application was assessed in vitro in different cancer cell lines. Cell viability was examined following treatment at various concentration of inhibitor (0.097656-50 μM) using a cell Titer-Blue cell viability assay. […] The plates were incubated using standard cell culture conditions for 1-4 hours and the plates were shaken for 10 seconds and record fluorescence at 560/590 nm.
Listing: IC50 of selected compounds

>>> df
                           structure_string  property_measured  experimental_value
0  CN(C)S(=O)(=O)c1c(F)c(F)c(F)c(F)c1Cc1ccccc1               IC50          1 to 10 µM
1  COc1ccc(NS(=O)(=O)c2c(F)c(F)c(F)c(F)c2OC2CC2)cc1F               IC50         0.1 to 1 µM
2  CN(C)S(=O)(=O)c1c(F)c(F)c(F)c(F)c1OCc1ccccn1               IC50          1 to 10 µM
3  COc1ccc(Oc2c(F)c(F)c(F)c(F)c2S(=O)(=O)Nc2ccc(OC)c(F)c2)cc1               IC50          1 to 10 µM

Record request: IC50 value, item CNc1c(F)c(F)c(F)c(F)c1S(=O)(=O)N(C)C
1 to 10 µM

Now consider COc1ccc(NS(=O)(=O)c2c(F)c(F)c(F)c(F)c2Oc2ccc(O)cc2)cc1F .
> 10 µM

Now consider CN(C)S(=O)(=O)c1c(F)c(F)c(F)c(F)c1C1CC1 .
1 to 10 µM

---

Listing: IC50 of selected compounds
# Tested on: MOLM-13 cells
# procedure_details: CellTiter-Blue cell viability, MOLM-13
# Format: cell-based
# condition_label: Homo sapiens, 72 hrs exposure

In [3]: df
Out[3]:
                           structure_string  target_of_assay  property_measured  experimental_value
0  COc1ccc(NS(=O)(=O)c2c(F)c(F)c(F)c(F)c2OCC(F)(F)F)cc1F    MOLM-13 cells               IC50          1 to 10 µM
1  COc1ccc(NS(=O)(=O)c2c(F)c(F)c(F)c(F)c2C(=O)C(F)(F)F)cc1F    MOLM-13 cells               IC50          1 to 10 µM
2  CC(=O)c1c(F)c(F)c(F)c(F)c1S(=O)(=O)N(C)C    MOLM-13 cells               IC50          1 to 10 µM
3  COc1ccc(NS(=O)(=O)c2c(F)c(F)c(F)c(F)c2OC(F)F)cc1F    MOLM-13 cells               IC50         0.1 to 1 µM

What value of IC50 on MOLM-13 cells does COc1ccc(NS(=O)(=O)c2c(F)c(F)c(F)c(F)c2OC2COC2)cc1F have?
> 10 µM

Now consider CN(C)S(=O)(=O)c1c(F)c(F)c(F)c(F)c1OCc1ccncc1 .
1 to 10 µM

Now consider Cc1c(F)c(F)c(F)c(F)c1S(=O)(=O)N(C)C .
1 to 10 µM

---

# Test system: MOLM-13 cells
# procedure_details: CellTiter-Blue cell viability, MOLM-13
# Type: cell-based
# condition_label: Homo sapiens, 72 hrs exposure
pIC50: −log10 of the molar value.
Listing: pIC50 of selected compounds

Consider the following illustrative entries.
                           structure_string  experimental_value
0  CC(C)Oc1c(F)c(F)c(F)c(F)c1S(=O)(=O)N(C)C        5.00 to 6.00
1  COc1ccc(NS(=O)(=O)c2cc(F)c(F)c(F)c2F)cc1F        6.00 to 7.00
2  COc1ccc(NS(=O)(=O)c2c(F)c(F)c(F)c(F)c2OCC2CC2)cc1F              < 5.00
3  COc1ccc(NS(=O)(=O)c2c(F)c(F)c(F)c(F)c2Oc2ccc(OC)c(F)c2)cc1F        5.00 to 6.00
4  CN(C)S(=O)(=O)c1c(F)c(F)c(F)c(F)c1Nc1cccnc1              < 5.00
5  CC(C)S(=O)(=O)Oc1c(F)c(F)c(F)c(F)c1S(=O)(=O)N(C)C        5.00 to 6.00
6  CN(C)S(=O)(=O)c1c(F)c(F)c(F)c(F)c1OC(=O)C(C)(C)C        5.00 to 6.00
7  COc1ccc(NS(=O)(=O)c2c(F)c(F)c(F)c(F)c2OCc2ccccc2)cc1F              < 5.00

Record request: pIC50 value, item CN(C)S(=O)(=O)c1c(F)c(F)c(F)c(F)c1OC(=O)OC(C)(C)C
< 5.00

Now consider COc1ccc(NS(=O)(=O)c2c(F)c(F)c(F)c(F)c2C(=O)O)cc1F .
5.00 to 6.00

Now consider CN(C)S(=O)(=O)c1c(F)c(F)c(F)c(F)c1NCc1ccccc1 .
5.00 to 6.00

Now consider COc1ccc(NS(=O)(=O)c2c(F)c(F)c(F)c(F)c2OCC2COC2)cc1F .
5.00 to 6.00
